Target chain: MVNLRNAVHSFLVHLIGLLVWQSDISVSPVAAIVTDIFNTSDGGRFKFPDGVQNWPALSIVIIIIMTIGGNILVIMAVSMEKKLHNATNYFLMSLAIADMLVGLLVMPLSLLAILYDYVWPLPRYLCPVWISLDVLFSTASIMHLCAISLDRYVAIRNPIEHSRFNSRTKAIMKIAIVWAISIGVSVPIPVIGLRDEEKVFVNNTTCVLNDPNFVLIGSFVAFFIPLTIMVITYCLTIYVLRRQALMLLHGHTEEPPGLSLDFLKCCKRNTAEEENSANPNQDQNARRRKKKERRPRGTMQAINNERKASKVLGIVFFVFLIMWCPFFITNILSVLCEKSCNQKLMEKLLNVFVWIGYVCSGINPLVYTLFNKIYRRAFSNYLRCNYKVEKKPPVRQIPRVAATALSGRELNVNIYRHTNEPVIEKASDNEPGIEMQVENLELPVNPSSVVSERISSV
pKi: −log10 of the molar value.

molecule: Cc1cccc(S(=O)(=O)N(C)[C@H](C)CCN2CCC(C)CC2)c1
pKi: < 5.00

====

# system: UniProt:P35368
# Sequence (P35368 whole entry): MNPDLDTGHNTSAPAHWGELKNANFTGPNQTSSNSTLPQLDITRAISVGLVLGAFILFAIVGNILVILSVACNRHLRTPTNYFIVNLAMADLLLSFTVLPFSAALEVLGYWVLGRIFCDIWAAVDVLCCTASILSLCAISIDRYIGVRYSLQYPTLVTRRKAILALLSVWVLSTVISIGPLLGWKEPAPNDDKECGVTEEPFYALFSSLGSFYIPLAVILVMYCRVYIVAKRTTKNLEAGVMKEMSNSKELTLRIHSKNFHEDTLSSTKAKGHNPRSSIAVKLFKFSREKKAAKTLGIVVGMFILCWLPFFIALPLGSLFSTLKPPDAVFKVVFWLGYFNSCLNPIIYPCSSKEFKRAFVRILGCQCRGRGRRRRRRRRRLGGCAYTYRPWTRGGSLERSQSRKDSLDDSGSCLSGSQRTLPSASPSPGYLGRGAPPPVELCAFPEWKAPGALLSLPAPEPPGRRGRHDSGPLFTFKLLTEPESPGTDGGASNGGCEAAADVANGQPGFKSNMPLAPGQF
pKi: −log10 of the molar value.
parameter-measured: pKi

molecule: Cc1cccc(S(=O)(=O)N(C)[C@H](C)CCN2CCC(C)CC2)c1
assay-result: < 5.00
